Reported values of solubility in G1/S (log2) for individual entries
- Test system: HeLa Kyoto;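 also: HeLa Kyoto cells arrested at G1/S by double thymidine block, proteins quantified by TMT10plex mass spectrometry in mild NP-40 versus SDS extracts, three biological replicates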
- METHOD_DESCRIPTION: solubility in G1/S (NP-40 vs SDS abundance) (log2 ratio); higher = more soluble
- SETUP_CONDITIONS: cell cycle stage: G1/S
Give the figure only, with no unit attached.

Answered examples (2):
| POLYMER_SEQUENCE | TARGET_OR_SYSTEM | solubility in G1/S (log2) |
| --- | --- | --- |
| MMKFKPNQTRTYDREGFKKRAACLCFRSEQEDEVLLVSSSRYPDQWIVPGGGMEPEEEPGGAAVREVYEEAGVKGKLGRLLGIFENQDRKHRTYVYVLTVTEILEDWEDSVNIGRKREWFKVEDAIKVLQCHKPVHAEYLEKLKLGCSPANGNSTVPSLPDNNALFVTAAQTSGLPSSVR [NUDT4] | HeLa Kyoto | 0.505 |
| MGDAGSERSKAPSLPPRCPCGFWGSSKTMNLCSKCFADFQKKQPDDDSAPSTSNSQSDLFSEETTSDNNNTSITTPTLSPSQQPLPTELNVTSPSKEECGPCTDTAHVSLITPTKRSCGTDSQSENEASPVKRPRLLENTERSEETSRSKQKSRRRCFQCQTKLELVQQELGSCRCGYVFCMLHRLPEQHDCTFDHMGRGREEAIMKMVKLDRKVGRSCQRIGEGCS [ZFAND3] | HeLa Kyoto | 0.216 |

Determine its reported solubility in G1/S (log2): MDKNELVQKAKLAEQAERYDDMAACMKSVTEQGAELSNEERNLLSVAYKNVVGARRSSWRVVSSIEQKTEGAEKKQQMAREYREKIETELRDICNDVLSLLEKFLIPNASQAESKVFYLKMKGDYYRYLAEVAAGDDKKGIVDQSQQAYQEAFEISKKEMQPTHPIRLGLALNFSVFYYEILNSPEKACSLAKTAFDEAIAELDTLSEESYKDSTLIMQLLRDNLTLWTSDTQGDEAEAGEGGEN [YWHAZ]
0.359

Entry MKGKEEKEGGARLGAGGGSPEKSPSAQELKEQGNRLFVGRKYPEAAACYGRAITRNPLVAVYYTNRALCYLKMQQHEQALADCRRALELDGQSVKAHFFLGQCQLEMESYDEAIANLQRAYSLAKEQRLNFGDDIPSALRIAKKKRWNSIEERRIHQESELHSYLSRLIAAERERELEECQRNHEGDEDDSHVRAQQACIEAKHDKYMADMDELFSQVDEKRKKRDIPDYLCGKISFELMREPCITPSGITYDRKDIEEHLQRVGHFDPVTRSPLTQEQLIPNLAMKEVIDAFISENGWVEDY [STUB1] needs its solubility in G1/S (log2) filled in; supply it.
0.397

Respond only with solubility in G1/S (log2) recorded for MAVTKELLQMDLYALLGIEEKAADKEVKKAYRQKALSCHPDKNPDNPRAAELFHQLSQALEVLTDAAARAAYDKVRKAKKQAAERTQKLDEKRKKVKLDLEARERQAQAQESEEEEESRSTRTLEQEIERLREEGSRQLEEQQRLIREQIRQERDQRLRGKAENTEGQGTPKLKLKWKCKKEDESKGGYSKDVLLRLLQKYGEVLNLVLSSKKPGTAVVEFATVKAAELAVQNEVGLVDNPLKISWLEGQPQDAVGRSHSGLSKGSVLSERDYESLVMMRMRQAAERQQLIARMQQEDQEGPPT [DNAJC17]
0.702
